biological target: human β3 adrenergic receptor (Homo sapiens); construct: stably transfected with the cloned β-adrenergic receptor (β1, β2 or β3); expressed in transfected cells; host or cells: Chinese hamster ovary (CHO) cells, stably transfected; experiment: Functional assay: cAMP production (LANCE TR-FRET) in CHO cells stably transfected with cloned β3 adrenergic receptor; format: cell-based; conditions: cAMP production, CHO cells expressing human β3 AR; read-out: human Beta-3 agonist functional activity
Sequence (P13945 whole entry): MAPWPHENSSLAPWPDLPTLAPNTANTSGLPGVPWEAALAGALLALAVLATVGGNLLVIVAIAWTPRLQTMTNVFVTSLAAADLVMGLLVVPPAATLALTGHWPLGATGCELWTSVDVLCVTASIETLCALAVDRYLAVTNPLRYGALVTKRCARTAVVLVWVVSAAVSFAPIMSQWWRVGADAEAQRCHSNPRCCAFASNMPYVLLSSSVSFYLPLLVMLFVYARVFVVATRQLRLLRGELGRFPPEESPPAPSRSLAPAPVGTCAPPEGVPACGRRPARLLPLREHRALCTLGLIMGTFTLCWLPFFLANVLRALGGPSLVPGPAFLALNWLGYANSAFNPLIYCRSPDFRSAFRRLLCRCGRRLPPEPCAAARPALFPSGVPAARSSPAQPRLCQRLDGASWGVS
Where a name gives a salt, the structure may show the parent alone.
value type: EC50

For the record Nc1nc(CC(=O)Nc2ccc(C[C@@H]3CC[C@H]([C@H](O)c4cccnc4)N3)cc2)cs1 [Example 1] , what value of EC50 is listed for human β3 adrenergic receptor (Homo sapiens)? < 10 nM

For the record C[C@H](NS(=O)(=O)c1ccc(F)cc1)C(=O)Nc1ccc(C[C@@H]2CC[C@H]([C@H](O)c3cccnc3)N2)cc1 [Example 246] , what value of EC50 is listed for human β3 adrenergic receptor (Homo sapiens)? < 100 nM

For the record O=C(Nc1ccc(CC2CCC(C(O)c3cccnc3)N2)cc1Br)C1CCc2sc(Br)nc21 (single isomer, unassigned) [Example 241] , what value of EC50 is listed for human β3 adrenergic receptor (Homo sapiens)? < 100 nM

For the record C[C@H](C(=O)Nc1ccc(C[C@@H]2CC[C@H]([C@H](O)c3cccnc3)N2)cc1)n1ccccc1=O (single isomer, unassigned) [Example 96, trifluoroacetic acid salt] , what value of EC50 is listed for human β3 adrenergic receptor (Homo sapiens)? < 10 nM
